Biological target: HLA-A*68:02
Test: IEDB peptide-MHC binding, purified MHC/direct/fluorescence; filed as Kd, often an IC50 or EC50 that approximates it; bounds were set here for any values at or beyond the usual limits of such assays
Conditions: source organism: Burkholderia mallei ATCC 23344
pKd: −log10 of the molar value.
measurement.name: pKd

Input: Form entry - test system: HLA-A*68:02; read-out: pKd; sequence: `LVTGAGSGF`
Output: ≤ 4.70

* * *

Biological target: HLA-A*01:01
Assay: IEDB peptide-MHC binding, purified MHC/competitive/fluorescence; filed as Kd, often an IC50 or EC50 that approximates it; bounds were set here for any values at or beyond the usual limits of such assays
Details: source organism: Rattus norvegicus
measurement.name: Kd

Input: # get_value(readout='Kd', item= `YYRYPTGESY` )
Output: ≥ 20 µM

* * *

Target: HLA-B*46:01
Experiment: IEDB peptide-MHC binding, purified MHC/competitive/fluorescence; filed as Kd, often an IC50 or EC50 that approximates it; bounds were set here for any values at or beyond the usual limits of such assays
Settings: source organism: Orthohantavirus dobravaense
pKd: −log10 of the molar value.
measurement.name: pKd

Input: # get_value(readout='pKd', item= `MRNTIMASK` )
Output: ≤ 4.70

* * *

Target: HLA-A*01:01
Assay: IEDB peptide-MHC binding, purified MHC/direct/fluorescence; filed as Kd, often an IC50 or EC50 that approximates it; bounds were set here for any values at or beyond the usual limits of such assays
Conditions: source organism: Mycobacterium tuberculosis variant bovis
measurement.name: Kd (µM)
Unit µM implied. Number only.

Input: # get_value(readout='Kd', item= `DTDPLPVVF` )
Output: 0.236

* * *

Target: HLA-B*27:05
Experiment: IEDB peptide-MHC binding, purified MHC/direct/fluorescence; filed as Kd, often an IC50 or EC50 that approximates it; bounds were set here for any values at or beyond the usual limits of such assays
Settings: source organism: Coxiella burnetii
pKd: −log10 of the molar value.
Let's look at some sequences and their measured pKd.

   biopolymer_sequence  measurement_name  obs_value
0            WAPEGDIRL               pKd     ≤ 4.70

Here is another sequence to look at.
Input: # get_value(readout='pKd', item= `YYYNFSEDL` )
Output: ≤ 4.70

* * *

Target: HLA-A*23:01
Assay: IEDB peptide-MHC binding, purified MHC/competitive/radioactivity; filed as Kd, often an IC50 or EC50 that approximates it; bounds were set here for any values at or beyond the usual limits of such assays
Conditions: source organism: Dengue virus 3 Martinique/1243/1999
pKd: −log10 of the molar value.
Given measured pKd, output rule met if it is greater than or equal to 7 and rule not met if not.

Examples with answers:
>>> print(df.to_string())
   biopolymer_sequence  tested_system      category
0            VWEVEDYGF    HLA-A*23:01  rule not met
1           RYLEFEALGF    HLA-A*23:01      rule met
2            MFKKRNLTI    HLA-A*23:01  rule not met

Now examine the next entry.
Input: Is pKd at least 7? Consider `WFVERNMVI`
Output: rule not met

* * *

Target: HLA-B*35:01
Experiment: IEDB peptide-MHC binding, purified MHC/direct/fluorescence; filed as Kd, often an IC50 or EC50 that approximates it; bounds were set here for any values at or beyond the usual limits of such assays
Settings: source organism: Coxiella burnetii
measurement.name: Kd (nM)
Unit nM implied. Number only.

Input: # get_value(readout='Kd', item= `WAPEGDIRL` )
Output: 899

Origin of values: the Immune Epitope Database (IEDB)
